# test.target: T1, murine TIM-3 extracellular domain protein with hFc tag (mTIM-3-hFc) (mouse, UniProt Q8VIM0 29-191)
# T1 construct: also called mouse TIM-3 extracellular domain protein; not shown: human IgG Fc fragment (hFc) of the pCpC vector
# T1 chain: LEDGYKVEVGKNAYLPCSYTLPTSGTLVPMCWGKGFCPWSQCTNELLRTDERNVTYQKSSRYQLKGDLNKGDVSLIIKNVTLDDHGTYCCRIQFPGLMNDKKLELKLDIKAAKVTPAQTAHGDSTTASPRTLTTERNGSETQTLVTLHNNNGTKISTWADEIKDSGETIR
# assay.text: ELISA, coated mouse TIM-3 ECD protein, 0.0001 nM antibody
quantity.kind: OD450

- binder: "18D2H2 fully human TIM-3 antibody (human IgG4, kappa) (antibody, V domains shown) VH: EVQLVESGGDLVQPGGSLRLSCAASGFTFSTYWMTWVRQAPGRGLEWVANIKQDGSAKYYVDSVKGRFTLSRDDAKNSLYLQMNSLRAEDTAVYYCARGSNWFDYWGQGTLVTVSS VL: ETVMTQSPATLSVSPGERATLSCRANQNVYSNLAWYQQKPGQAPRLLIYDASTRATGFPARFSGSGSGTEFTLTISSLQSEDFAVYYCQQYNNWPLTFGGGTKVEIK"
  assay.value: 0.21
- binder: "57F4E5 fully human TIM-3 antibody (human IgG4, kappa) (antibody, V domains shown) VH: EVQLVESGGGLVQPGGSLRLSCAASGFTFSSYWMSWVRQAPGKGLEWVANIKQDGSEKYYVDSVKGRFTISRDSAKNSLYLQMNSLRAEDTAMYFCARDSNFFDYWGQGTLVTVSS VL: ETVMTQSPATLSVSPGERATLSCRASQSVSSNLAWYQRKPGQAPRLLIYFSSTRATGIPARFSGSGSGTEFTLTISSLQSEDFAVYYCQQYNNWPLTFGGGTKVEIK"
  assay.value: 0.24
- binder: "39E5H1 fully human TIM-3 antibody (human IgG4, kappa) (antibody, V domains shown) VH: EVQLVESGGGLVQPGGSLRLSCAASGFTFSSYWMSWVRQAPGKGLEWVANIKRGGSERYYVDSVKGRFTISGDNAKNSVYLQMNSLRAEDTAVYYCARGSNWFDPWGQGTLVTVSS VL: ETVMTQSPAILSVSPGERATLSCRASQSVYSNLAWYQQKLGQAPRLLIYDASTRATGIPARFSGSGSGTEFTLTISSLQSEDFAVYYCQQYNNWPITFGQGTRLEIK"
  assay.value: 0.23
- binder: "34B6D8 fully human TIM-3 antibody (human IgG4, kappa) (antibody, V domains shown) VH: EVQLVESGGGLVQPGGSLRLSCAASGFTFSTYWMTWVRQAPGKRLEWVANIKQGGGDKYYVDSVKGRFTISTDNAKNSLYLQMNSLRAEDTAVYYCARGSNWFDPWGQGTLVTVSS VL: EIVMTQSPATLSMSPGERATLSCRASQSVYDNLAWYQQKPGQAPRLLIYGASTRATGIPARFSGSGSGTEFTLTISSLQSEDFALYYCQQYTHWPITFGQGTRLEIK"
  assay.value: 0.23
- binder: "7A4F10 fully human TIM-3 antibody (human IgG4, kappa) (antibody, V domains shown) VH: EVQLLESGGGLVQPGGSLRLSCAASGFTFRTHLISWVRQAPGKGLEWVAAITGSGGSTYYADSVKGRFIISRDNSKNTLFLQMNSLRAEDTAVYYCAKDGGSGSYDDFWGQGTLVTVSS VL: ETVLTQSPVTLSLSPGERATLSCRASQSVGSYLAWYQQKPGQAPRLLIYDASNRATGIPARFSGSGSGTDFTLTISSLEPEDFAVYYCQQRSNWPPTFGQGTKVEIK"
  assay.value: 0.22
- binder: "134H3G6 fully human TIM-3 antibody (human IgG4, kappa) (antibody, V domains shown) VH: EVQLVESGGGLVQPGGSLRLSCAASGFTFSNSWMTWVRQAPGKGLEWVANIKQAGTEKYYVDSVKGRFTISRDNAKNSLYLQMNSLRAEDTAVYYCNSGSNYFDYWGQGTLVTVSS VL: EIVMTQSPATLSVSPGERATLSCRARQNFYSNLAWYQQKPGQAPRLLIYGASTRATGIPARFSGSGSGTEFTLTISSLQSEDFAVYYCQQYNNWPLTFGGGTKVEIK"
  assay.value: 0.22
